Recorded values, source patent US20220119522A1.

biological target: T1, human TREM2 truncated stalk peptide (aa 149-163) (human); test: ELISA on biotinylated peptide captured by streptavidin; A450 normalised to isotype control
T1 sequence (peptide, biotinylated (site not stated)): SFEDAHVEHSISRSL
experimental-readout: fold over background (A450) (fold)
Write the answer as a number in fold, unit excluded.

Reported fold over background (A450) for CL0020096 (antibody, V domains shown) VH: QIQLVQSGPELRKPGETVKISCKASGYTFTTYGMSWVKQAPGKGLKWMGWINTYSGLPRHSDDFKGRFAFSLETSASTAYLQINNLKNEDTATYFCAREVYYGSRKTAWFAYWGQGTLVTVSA VL: DLVMSQSPSSLAVSVGERVTMSCKSSQSLLYSNDQKNYLAWYQQIPGQSPKLLIYWASTRESGVPDRFTGSGSGTDFTLTISSVKAEDLAVYFCQQYYSYPPTFGAGTKLELK : what is it?
2.2
